experiment: Stability of non-dihydrate azithromycin in suspension (POS formulation II or bulk drug in water); SS-NMR quantification of form A; format: physicochemical; conditions: Bulk Drug in 18 mls water, 30° C., Day 10
Assay Readout: % A (azithromycin dihydrate, form A, of recovered azithromycin) (%)
Answers are plain numbers, in %.

Below: 3 molecules and their reported % A (azithromycin dihydrate, form A, of recovered azithromycin).
CCC1OC(=O)C(C)C(O[C@H]2C[C@@](C)(OC)[C@@H](O)C(C)O2)C(C)[C@@H](OC2OC(C)CC(N(C)C)[C@H]2O)[C@@](C)(O)C[C@@H](C)CN(C)[C@H](C)[C@@H](O)[C@]1(C)O (stereo partly shown) [Form J]; 0
CC[C@H]1OC(=O)[C@H](C)[C@@H](O[C@H]2C[C@@](C)(OC)[C@@H](O)[C@H](C)O2)[C@H](C)[C@@H](O[C@@H]2O[C@H](C)C[C@H](N(C)C)[C@H]2O)[C@](C)(O)C[C@@H](C)CN(C)[C@H](C)[C@@H](O)[C@]1(C)O [Form G, azithromycin sesquihydrate]; 73
CCC1OC(=O)C(C)C(O[C@H]2C[C@@](C)(OC)[C@@H](O)C(C)O2)C(C)[C@@H](OC2OC(C)CC(N(C)C)[C@H]2O)[C@@](C)(O)C[C@@H](C)CN(C)[C@H](C)[C@@H](O)[C@]1(C)O (stereo partly shown) [Form F]; 0

For the next question, use this molecule.
INPUT: Item CCC1OC(=O)C(C)C(O[C@H]2C[C@@](C)(OC)[C@@H](O)C(C)O2)C(C)[C@@H](OC2OC(C)CC(N(C)C)[C@H]2O)[C@@](C)(O)C[C@@H](C)CN(C)[C@H](C)[C@@H](O)[C@]1(C)O (stereo partly shown) [Form M] has what recorded % A (azithromycin dihydrate, form A, of recovered azithromycin)?
OUTPUT: 0

Attribution: patent US20100048498A1
